system: A549 cells; experiment: Label-free RWG (Epic) biosensor DMR assay, agonism mode, A549 cells; type: cell-based, human; details: Homo sapiens, stimulation with pinacidil, read-out: EC50 of the biosensor signal

Molecule	EC50
CC(N/C(=N\C#N)Nc1ccncc1)C(C)(C)C (stereo not shown)	~5 µM

====

System: A549 cells
Assay: Label-free RWG (Epic) biosensor DMR assay, agonism mode, A549 cells
Assay type: cell-based, human
Conditions: Homo sapiens, 50 min, N-DMR amplitudes ~50 min after stimulation, n=4, read-out: EC50 of the N-DMR signal
Protocol: Cells were typically grown using ˜1 to 2×10^4 cells per well at passage 3 to 15 suspended in 50 μl of the corresponding culture medium in the biosensor microplate, and were cultured at 37° C. under air/5% CO2 for ˜1 day. Except for A431 which underwent one day culture followed by one starvation in serum free medium, all other cells were directly assayed without starvation. The confluency for all cells at the time of assays was ˜95% to 100%. […]

Structure smiles string	EC50 / µM
O=c1cc(N2CCOCC2)oc2c(-c3ccccc3)cccc12	14.7
